- assayedTarget: PARS (Mus musculus, UniProt P11103)
- Construct: endogenous in cells
- Sequence (P11103 whole entry): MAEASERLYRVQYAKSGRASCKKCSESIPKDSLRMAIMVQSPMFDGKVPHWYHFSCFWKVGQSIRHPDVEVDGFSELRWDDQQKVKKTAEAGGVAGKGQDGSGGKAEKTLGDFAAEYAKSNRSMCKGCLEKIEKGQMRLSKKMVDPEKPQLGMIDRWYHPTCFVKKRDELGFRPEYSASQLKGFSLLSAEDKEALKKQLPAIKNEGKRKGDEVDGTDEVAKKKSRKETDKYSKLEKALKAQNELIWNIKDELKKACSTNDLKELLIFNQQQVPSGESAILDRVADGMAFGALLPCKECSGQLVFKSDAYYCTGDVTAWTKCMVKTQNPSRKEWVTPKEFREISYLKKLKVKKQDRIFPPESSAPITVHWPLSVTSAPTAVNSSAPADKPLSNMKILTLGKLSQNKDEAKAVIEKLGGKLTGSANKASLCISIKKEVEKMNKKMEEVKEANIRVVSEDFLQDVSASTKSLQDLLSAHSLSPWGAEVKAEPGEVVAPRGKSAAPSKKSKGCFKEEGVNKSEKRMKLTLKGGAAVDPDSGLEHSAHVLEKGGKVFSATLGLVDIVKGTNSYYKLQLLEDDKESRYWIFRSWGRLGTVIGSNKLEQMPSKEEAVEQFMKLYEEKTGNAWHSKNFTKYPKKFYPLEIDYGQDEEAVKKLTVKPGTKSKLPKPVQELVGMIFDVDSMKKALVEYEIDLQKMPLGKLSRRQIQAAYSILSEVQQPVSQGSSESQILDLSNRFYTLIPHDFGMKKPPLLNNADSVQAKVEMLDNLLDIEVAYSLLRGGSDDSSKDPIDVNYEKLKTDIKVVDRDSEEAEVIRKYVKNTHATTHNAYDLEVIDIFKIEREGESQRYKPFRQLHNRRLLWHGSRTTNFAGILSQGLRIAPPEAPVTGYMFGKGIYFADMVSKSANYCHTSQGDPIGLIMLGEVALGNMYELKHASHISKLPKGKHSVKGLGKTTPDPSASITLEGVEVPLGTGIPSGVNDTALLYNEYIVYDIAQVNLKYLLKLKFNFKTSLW
- protocolDetails: Cell protection assay: PARS activity in peroxynitrite-treated raw murine macrophages
- measurementConditions: peroxynitrite 750 μM, 3H-NAD incorporation, calculated from a dose-response curve
pEC50: −log10 of the molar value.
observable: pEC50

CN(C)CCC(=O)Nc1cccc2c1Cc1c-2[nH]c(=O)c2ccccc12
6.55
CN(C)CC(=O)Nc1cccc2c1Cc1c-2[nH]c(=O)c2ccccc12
6.70
